Ref: PubChem BioAssay

assay: binders of probe aFGF10 on microarray, primary screen, stem cell growth factor project, biochemical, small-molecule microarray, fluorescence 635/667 (AID 1071); conditions: higher = more signal;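 further: score merges 667 nm spot intensity and signal to noise from triplicate slides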
readout-name: composite z-score
// return just the number, without any unit appended

molecule	composite z-score
O=C1N[C@@H](Cc2ccccc2)C(=O)N2[C@@H]1C[C@@H](C(=O)O)[C@H]2c1ccc(O)cc1	0.473
[N-]=[N+]=Nc1ccccc1C[C@@]1(C(=O)O)N=C(c2ccc(OCCCO)cc2)O[C@@H]1c1ccccc1N=[N+]=[N-]	0.325
CC(C)N1CC=CC23O[C@@H]4/C=C\CCCOC(=O)C4[C@H]2C(=O)N(CCCCCCO)[C@@H]3C1=O (some centres undefined)	0.716

--- query ---
# get_value(readout='composite z-score', item= CN(C)C(=O)[C@@]1(Cc2ccccc2N=[N+]=[N-])N=C(c2ccc(OCCCO)cc2)O[C@H]1c1ccccc1 ) 0.359

---

assay: basal MM1S mitochondrial membrane potential changes, profiling panel, cell-based, JC-1 fluorescence, 24 h, 100 nL compound (AID 1170); conditions: higher = more signal; further: test concentration not given here
Tag: true (1) if measured z-score is not below -1, false (0) if it is.

Please review the following examples before continuing.
compound	class-assignment
COCC1=C2[C@@H](CCc3ccccc3)OB(O)C[C@@H]2[C@@H]2C(=O)N(C)C(=O)[C@@H]2C1	true (1)
COC(=O)C1=CC(CCCO)=CC(c2ccc(CN3CCCC3)cc2)N(Cc2cc3c(cc2Br)OCO3)C=C1C(=O)OC (stereo unspecified)	true (1)
C=C(C)[C@@H]1CC=C(C(O)C2C=CC3C(=O)N(c4ccccc4)C(=O)C3N2Nc2ccc(C#N)cc2)CC1 (stereo partly specified)	true (1)
COCCOC(=O)N1C(=O)[C@@]2(c3cc(C#Cc4ccc(OC)cc4)ccc31)[C@H](c1ccc(OCCO)cc1)N1[C@H](c3ccccc3)[C@H](c3ccccc3)OC(=O)[C@H]1[C@@H]2C(=O)Nc1nc2ccccc2s1	false (0)
Cc1ccc(S[C@]2(C(=O)NC(C)C)CC(=O)N(C(C)C)[C@@H]2c2ccc(CO)cc2I)cc1	false (0)
CCOC(=O)C1=CCC(c2ccco2)N(S(=O)(=O)c2ccc(C)cc2)C1 (stereo unspecified)	false (0)
C=C(COC)/C(=C/C[C@@H](OC(=O)c1ccncc1)c1ccccc1OCCO)c1cc(C(=O)OC)ccc1OC	false (0)
C=C(CCCC)/C(=C/C[C@H](OC(C)=O)c1ccc(OCCO)cc1)c1cc(C(=O)OC)ccc1OC	true (1)
CN(C)C(=O)[C@@]1(Cc2ccccc2)COC(c2ccc(OCCCO)cc2)=N1	false (0)
CCCC=C(CCC)[C@@H](NS(=O)(=O)c1cccc2cccnc12)c1ccc(-c2ccccc2)cc1	true (1)

State whether the measured z-score reaches -1, counting equality as reaching it, for CC1CC/C=C\[C@H]2OC34C=CCN(CCN5CCOCC5)C(=O)[C@H]3N(C(C)CO)C(=O)[C@@H]4C2C(=O)O1 (stereo partly specified) true (1)

Would you say C=CCC(OC(C)=O)[C@@H]1[C@@H](N(Cc2cccc3ccccc23)C(=O)c2cccc3ccccc23)c2cc(OCCCO)ccc2N1C(=O)c1ccc2ccccc2c1 (stereo partly specified) shows z-score at minimum -1? true (1)

Item COCCCNC(=O)[C@@]1(Sc2ccc(C)cc2)CC(=O)N(Cc2ccccc2Cl)[C@@H]1c1ccc(CO)cc1I with z-score of -1 or above? false (0)

Exam item: decide whether the reported z-score for CC(C)C[C@@H]1NC(=O)[C@@]23C(=O)N[C@@H](Cc4ccccc4)C2[C@H](C)[C@@]2(C)O[C@H]2C3/C=C/C/C=C\CNC(=O)[C@@H](C)NC1=O (stereo partly specified) is at least -1. true (1)

Does [N-]=[N+]=Nc1ccccc1C[C@]1(C(=O)NCc2ccccc2)COC(c2ccc(OCCCO)cc2)=N1 have a reported z-score of at least -1? false (0)
